The reported numbers originate from the supplement of paper PMC10307832.

- Tested on: NCI-H596
- Assay details: relative viability (nuclei count vs DMSO), 5 days (fraction); higher = more cells survive
- Assay setup: first compound 1 µM
Property name: relative viability

1) NC(=O)Nc1cc(-c2cccc(F)c2)sc1C(=O)N[C@H]1CCCNC1 [AZD7762] + N=C(N)NC(=N)NCCc1ccccc1 [Phenformin] (partner 250 µM) : 0.673
2) NC(=O)Nc1cc(-c2cccc(F)c2)sc1C(=O)N[C@H]1CCCNC1 [AZD7762] + CCNC(=O)c1noc(-c2cc(C(C)C)c(O)cc2O)c1-c1ccc(CN2CCOCC2)cc1 [Luminespib] (partner 0.01 µM) : 1.03
3) NC(=O)Nc1cc(-c2cccc(F)c2)sc1C(=O)N[C@H]1CCCNC1 [AZD7762] + Nc1ncn([C@H]2C[C@H](O)[C@@H](CO)O2)c(=O)n1 [Decitabine] (partner 2 µM) : 1.03
4) NC(=O)Nc1cc(-c2cccc(F)c2)sc1C(=O)N[C@H]1CCCNC1 [AZD7762] + CS(=O)(=O)N1CCN(Cc2cc3nc(-c4cccc5[nH]ncc45)nc(N4CCOCC4)c3s2)CC1 [Pictilisib] (partner 1 µM) : 0.389
5) NC(=O)Nc1cc(-c2cccc(F)c2)sc1C(=O)N[C@H]1CCCNC1 [AZD7762] + O=C(CCCCCCC(=O)Nc1ccccc1)NO [Vorinostat] (partner 1 µM) : 0.594
6) NC(=O)Nc1cc(-c2cccc(F)c2)sc1C(=O)N[C@H]1CCCNC1 [AZD7762] + O=C(c1cc(Cc2n[nH]c(=O)c3ccccc23)ccc1F)N1CCN(C(=O)C2CC2)CC1 [Olaparib] (partner 8 µM) : 0.478

* * *

- Tested on: NCI-H2126
- Assay details: relative viability (nuclei count vs DMSO), 5 days (fraction); higher = more cells survive
- Assay setup: first compound 0.253 µM
Property name: relative viability

1. Oc1nc(-c2ccc(C(F)(F)F)cc2)nc2c1CSCC2 [XAV939] + O=C(CCCCCCC(=O)Nc1ccccc1)NO [Vorinostat] (partner 1 µM) : 0.587
2. C=C1C(=O)O[C@@H](CCCCCCCC)[C@@H]1C(=O)O [C-75] + CC(=O)Nc1cccc(-n2c(=O)n(C3CC3)c(=O)c3c(Nc4ccc(I)cc4F)n(C)c(=O)c(C)c32)c1 [Trametinib] (partner 0.02 µM) : 0.587
3. Oc1nc(-c2ccc(C(F)(F)F)cc2)nc2c1CSCC2 [XAV939] + CS(=O)(=O)CCNCc1ccc(-c2ccc3ncnc(Nc4ccc(OCc5cccc(F)c5)c(Cl)c4)c3c2)o1 [Lapatinib] (partner 2 µM) : 0.583

* * *

Property: relative viability; scope: individual molecules
- Test system: PC-3 [JPC-3]
- Assay details: relative viability (nuclei count vs DMSO), 5 days (fraction); higher = more cells survive
- Assay setup: first compound 0.01581 µM
Property name: relative viability

1. CC1(C)CCC(c2ccc(Cl)cc2)=C(CN2CCN(c3ccc(C(=O)NS(=O)(=O)c4ccc(N[C@H](CCN5CCOCC5)CSc5ccccc5)c(S(=O)(=O)C(F)(F)F)c4)cc3)CC2)C1 [Navitoclax] + CS(=O)(=O)CCNCc1ccc(-c2ccc3ncnc(Nc4ccc(OCc5cccc(F)c5)c(Cl)c4)c3c2)o1 [Lapatinib] (partner 2 µM) : 0.438
2. CC1(C)CCC(c2ccc(Cl)cc2)=C(CN2CCN(c3ccc(C(=O)NS(=O)(=O)c4ccc(N[C@H](CCN5CCOCC5)CSc5ccccc5)c(S(=O)(=O)C(F)(F)F)c4)cc3)CC2)C1 [Navitoclax] + NC(=O)Nc1cc(-c2cccc(F)c2)sc1C(=O)N[C@H]1CCCNC1 [AZD7762] (partner 0.2 µM) : 0.972
3. CC1(C)CCC(c2ccc(Cl)cc2)=C(CN2CCN(c3ccc(C(=O)NS(=O)(=O)c4ccc(N[C@H](CCN5CCOCC5)CSc5ccccc5)c(S(=O)(=O)C(F)(F)F)c4)cc3)CC2)C1 [Navitoclax] + CC(C)C[C@H](NC(=O)[C@H](Cc1ccccc1)NC(=O)c1cnccn1)B(O)O [Bortezomib] (partner 0.002 µM) : 0.784
4. CC1(C)CCC(c2ccc(Cl)cc2)=C(CN2CCN(c3ccc(C(=O)NS(=O)(=O)c4ccc(N[C@H](CCN5CCOCC5)CSc5ccccc5)c(S(=O)(=O)C(F)(F)F)c4)cc3)CC2)C1 [Navitoclax] + CC(=O)c1c(C)c2cnc(Nc3ccc(N4CCNCC4)cn3)nc2n(C2CCCC2)c1=O [Palbociclib] (partner 0.5 µM) : 0.575
5. CC1(C)CCC(c2ccc(Cl)cc2)=C(CN2CCN(c3ccc(C(=O)NS(=O)(=O)c4ccc(N[C@H](CCN5CCOCC5)CSc5ccccc5)c(S(=O)(=O)C(F)(F)F)c4)cc3)CC2)C1 [Navitoclax] + O=C(CCCCCCC(=O)Nc1ccccc1)NO [Vorinostat] (partner 1 µM) : 0.868
6. CC1(C)CCC(c2ccc(Cl)cc2)=C(CN2CCN(c3ccc(C(=O)NS(=O)(=O)c4ccc(N[C@H](CCN5CCOCC5)CSc5ccccc5)c(S(=O)(=O)C(F)(F)F)c4)cc3)CC2)C1 [Navitoclax] + C[C@]1(O)C[C@@H](c2nc(-c3ccc4ccc(-c5ccccc5)nc4c3)c3c(N)nccn32)C1 [Linsitinib] (partner 1 µM) : 0.996
7. CC1(C)CCC(c2ccc(Cl)cc2)=C(CN2CCN(c3ccc(C(=O)NS(=O)(=O)c4ccc(N[C@H](CCN5CCOCC5)CSc5ccccc5)c(S(=O)(=O)C(F)(F)F)c4)cc3)CC2)C1 [Navitoclax] + Cc1nc(Nc2ncc(C(=O)Nc3c(C)cccc3Cl)s2)cc(N2CCN(CCO)CC2)n1 [Dasatinib] (partner 0.075 µM) : 1.07
